TEST: Metabolic stability in monkey liver microsomes
Type: in vitro ADME
# key: entry, value: half-life
MEASUREMENT_LABEL: half-life

{"STRUCTURE_AS_SMILES": "C=CC(=O)Nc1cccc(-c2n[nH]c3cc(Cl)ccc23)c1", "RECORDED_VALUE": "< 5 min"}
{"STRUCTURE_AS_SMILES": "C=CC(=O)Nc1cccc(-c2n[nH]c3c2COCC3)c1", "RECORDED_VALUE": "< 5 min"}
{"STRUCTURE_AS_SMILES": "C=CC(=O)Nc1cccc(-c2n[nH]c3ccccc23)c1", "RECORDED_VALUE": "< 5 min"}
{"STRUCTURE_AS_SMILES": "C=CC(=O)Nc1cc(-c2n[nH]c3ccccc23)ccc1C", "RECORDED_VALUE": "< 5 min"}
{"STRUCTURE_AS_SMILES": "C=CC(=O)Nc1cccc(-c2n[nH]c3c(Cl)cccc23)c1", "RECORDED_VALUE": "< 5 min"}
{"STRUCTURE_AS_SMILES": "C=CC(=O)Nc1cccc(-c2n[nH]c3c2CCCC3)c1", "RECORDED_VALUE": "< 5 min"}
{"STRUCTURE_AS_SMILES": "C=CC(=O)Nc1cccc(-c2n[nH]c3c2CC(C)(C)CC3)c1", "RECORDED_VALUE": "5 min"}
{"STRUCTURE_AS_SMILES": "C=CC(=O)Nc1cc(C#N)cc(-c2n[nH]c3ccccc23)c1", "RECORDED_VALUE": "< 5 min"}
{"STRUCTURE_AS_SMILES": "C=CC(=O)Nc1cc(C#N)cc(-c2n[nH]c3cc(C)ccc23)c1", "RECORDED_VALUE": "< 5 min"}
{"STRUCTURE_AS_SMILES": "C=CC(=O)Nc1cccc(-c2n[nH]c3cc(C)ccc23)c1", "RECORDED_VALUE": "< 5 min"}

---

TARGET_SYSTEM: MKK7 (Homo sapiens)
Construct: purchased Nanosyn (contract assay)
Sequence (O14733 whole entry): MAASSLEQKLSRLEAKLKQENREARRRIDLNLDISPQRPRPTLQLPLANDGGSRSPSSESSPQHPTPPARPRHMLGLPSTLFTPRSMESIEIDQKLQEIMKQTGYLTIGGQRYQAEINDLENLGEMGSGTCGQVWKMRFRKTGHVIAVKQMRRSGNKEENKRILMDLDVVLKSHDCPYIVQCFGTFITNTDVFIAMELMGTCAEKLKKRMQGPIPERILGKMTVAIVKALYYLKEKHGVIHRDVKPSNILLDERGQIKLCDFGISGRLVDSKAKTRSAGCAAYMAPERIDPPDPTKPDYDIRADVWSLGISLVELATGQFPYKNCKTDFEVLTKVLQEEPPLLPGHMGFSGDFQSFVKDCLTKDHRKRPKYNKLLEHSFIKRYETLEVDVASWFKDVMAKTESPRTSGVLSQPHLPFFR
TEST: In vitro kinase activity assay for MKK7 (Nanosyn)
Type: biochemical
CONDITION_DESCRIPTION: read-out: MKK7 IC50 in vitro
pIC50: −log10 of the molar value.
Assign class by pIC50: not lower than 7 means true (1); lower than 7 means false (0).

{"COMPOUND": "C=CC(=O)Nc1cccc(-c2n[nH]c3ccccc23)c1", "TARGET_SYSTEM": "MKK7 (Homo sapiens)", "CLASS_ASSIGNMENT": "true (1)"}
{"COMPOUND": "C#CCCCC(=O)N1CCc2[nH]nc(-c3cccc(NC(=O)C=C)c3)c2C1", "TARGET_SYSTEM": "MKK7 (Homo sapiens)", "CLASS_ASSIGNMENT": "true (1)"}
{"COMPOUND": "CN(C)C/C=C/C(=O)Nc1cccc(-c2n[nH]c3ccccc23)c1", "TARGET_SYSTEM": "MKK7 (Homo sapiens)", "CLASS_ASSIGNMENT": "false (0)"}
{"COMPOUND": "C=CC(=O)Nc1cccc(-c2n[nH]c3cc(OC)ccc23)c1", "TARGET_SYSTEM": "MKK7 (Homo sapiens)", "CLASS_ASSIGNMENT": "true (1)"}
{"COMPOUND": "C=CC(=O)N1CCN(CC2=NC(C)N=N2)CC1 (stereo not shown)", "TARGET_SYSTEM": "MKK7 (Homo sapiens)", "CLASS_ASSIGNMENT": "false (0)"}
{"COMPOUND": "C=CC(=O)Nc1cccc(-c2n[nH]c3cc(C)ccc23)c1", "TARGET_SYSTEM": "MKK7 (Homo sapiens)", "CLASS_ASSIGNMENT": "true (1)"}
{"COMPOUND": "C=CC(=O)Nc1cccc(-c2n[nH]c3cc([N+](=O)[O-])ccc23)c1", "TARGET_SYSTEM": "MKK7 (Homo sapiens)", "CLASS_ASSIGNMENT": "true (1)"}
{"COMPOUND": "C=CC(=O)Nc1cccc(-c2n[nH]c3c(C)cccc23)c1", "TARGET_SYSTEM": "MKK7 (Homo sapiens)", "CLASS_ASSIGNMENT": "false (0)"}
{"COMPOUND": "C=CC(=O)Nc1cccc2[nH]ncc12", "TARGET_SYSTEM": "MKK7 (Homo sapiens)", "CLASS_ASSIGNMENT": "false (0)"}
{"COMPOUND": "C=CC(=O)NCC1CCCN1c1cc(NC)ncn1 (stereo not shown)", "TARGET_SYSTEM": "MKK7 (Homo sapiens)", "CLASS_ASSIGNMENT": "false (0)"}
{"COMPOUND": "C=CC(=O)Nc1cccc(-c2n[nH]c3c(Cl)cccc23)c1", "TARGET_SYSTEM": "MKK7 (Homo sapiens)", "CLASS_ASSIGNMENT": "true (1)"}
{"COMPOUND": "C=CC(=O)N1CCOC(c2nc(CCC)n[nH]2)C1 (stereo not shown)", "TARGET_SYSTEM": "MKK7 (Homo sapiens)", "CLASS_ASSIGNMENT": "false (0)"}
{"COMPOUND": "C=CC(=O)Nc1ccc(N2CCNC2=O)cc1", "TARGET_SYSTEM": "MKK7 (Homo sapiens)", "CLASS_ASSIGNMENT": "false (0)"}
{"COMPOUND": "C=CC(=O)Nc1cccc(-c2n[nH]c3cc(-c4ccccc4)ccc23)c1", "TARGET_SYSTEM": "MKK7 (Homo sapiens)", "CLASS_ASSIGNMENT": "true (1)"}
{"COMPOUND": "C=CC(=O)Nc1cccc(-c2n[nH]c3c(F)cccc23)c1", "TARGET_SYSTEM": "MKK7 (Homo sapiens)", "CLASS_ASSIGNMENT": "true (1)"}
{"COMPOUND": "C=CC(=O)Nc1cccc(-c2n[nH]c3cc(Br)ccc23)c1", "TARGET_SYSTEM": "MKK7 (Homo sapiens)", "CLASS_ASSIGNMENT": "true (1)"}
{"COMPOUND": "C=CC(=O)Nc1cc(-c2n[nH]c3ccccc23)ccc1C", "TARGET_SYSTEM": "MKK7 (Homo sapiens)", "CLASS_ASSIGNMENT": "true (1)"}
{"COMPOUND": "C=CC(=O)Nc1ccc2c(c1)C(=O)NC2", "TARGET_SYSTEM": "MKK7 (Homo sapiens)", "CLASS_ASSIGNMENT": "false (0)"}
{"COMPOUND": "C=CC(=O)Nc1cccc(-c2n[nH]c3c2CCCC3)c1", "TARGET_SYSTEM": "MKK7 (Homo sapiens)", "CLASS_ASSIGNMENT": "true (1)"}
{"COMPOUND": "C=CC(=O)NC1CCC(c2nc(-c3ccccc3)n[nH]2)CC1 (stereo not shown)", "TARGET_SYSTEM": "MKK7 (Homo sapiens)", "CLASS_ASSIGNMENT": "false (0)"}
{"COMPOUND": "C=CC(=O)Nc1cccc(-c2n[nH]c3c2CC(C)(C)CC3)c1", "TARGET_SYSTEM": "MKK7 (Homo sapiens)", "CLASS_ASSIGNMENT": "true (1)"}
{"COMPOUND": "C=CC(=O)Nc1cccc(-c2n[nH]c3c2CNCC3)c1", "TARGET_SYSTEM": "MKK7 (Homo sapiens)", "CLASS_ASSIGNMENT": "false (0)"}

Value source: patent US20210238173A1
